Molecular target: human FGF21 receptor (FGF21R): full length human FGFR1c and full length human β-Klotho co-expressed at the … (human, UniProt P11362 22-822; Q86Z14 53-1044)
Assay: cell-based or functional assay
measuredProperty: EC50 (nM), Erk-phosphorylation, human adipocyte assay
State the answer as a number, implicitly in nM.

Query block: Which EC50 (nM), Erk-phosphorylation, human adipocyte assay reading was recorded for the binder 22H5 Heavy Chain, Insertion of Y107 (SEQ ID NO 405), as printed in Table 7 (antibody, human IgG2, lambda, V domains shown) VH: QVTLKESGPVLVKPTETLTLTCTVSGFSLNNARMGVSWIRQPPGKALEWLAHIFSNDEKSYSTSLKSRLTISKDTSKSQVVLIMTNMDPVDTATYYCARSVVTGGYYYYDGMDVWGQGTTVTVSS VL: SYVLTQPPSVSVAPGQTARITCGGNNIGSQSVHWYQQKPGQAPVLVVYDDSDRPSGIPERFSGSNSGNTATLTISRVEAGDEADYYCQVWDNTSDHVVFGGGTKLTVLG ?
Result block: 0.51
